target: PD-1/PD-L1 (Homo sapiens, UniProt Q9NZQ7); test: PD-1/PD-L1 biochemical protein-protein interaction assay (ALPHA); details: 0.3 nM His tagged PD-L1, 2.5 nM biotinylated Fc-PD-1, 60 minutes at 25° C., read-out: IC50 PD-L1-PD-1 Alpha IC50-mono PD-L1-fcP-D1
Sequence (Q9NZQ7 19-238 limits assumed): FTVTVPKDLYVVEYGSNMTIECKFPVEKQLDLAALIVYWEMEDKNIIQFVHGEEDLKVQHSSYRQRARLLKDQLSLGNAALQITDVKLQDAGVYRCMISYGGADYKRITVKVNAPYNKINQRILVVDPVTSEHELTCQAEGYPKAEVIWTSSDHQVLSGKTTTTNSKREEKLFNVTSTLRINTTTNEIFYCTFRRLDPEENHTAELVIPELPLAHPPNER
pIC50: −log10 of the molar value.
value-type: pIC50

Cc1c(COc2cc(OCc3cncc(C#N)c3)c(CNC[C@@H](O)CC(=O)O)cc2Cl)cccc1-c1cccc(Nc2nccc3cc(CNCCO)cnc23)c1C [Example 438]; 9.32

[a] N#Cc1cncc(COc2nc(OCc3cccc(-c4cccc(COc5nc(OCc6cncc(C#N)c6)c(CNC[C@@H](O)CC(=O)O)cc5Br)c4Cl)c3Cl)c(Br)cc2CNC[C@@H](O)CC(=O)O)c1 [Example 563]
[b] COc1nc(O[C@H]2CCc3c(-c4cccc(-c5cc(C)c(CNC[C@@H]6CCC(=O)N6)c(OC)n5)c4Cl)cccc32)c(Cl)cc1CN1CC[C@@](C)(C(=O)O)C1 [Example 488]
Request: Identify the entry with the larger pIC50. Options: a and b Field: selected label. Fill in the label of the entry you choose.
Result: b
